biological target: Aurora B (Homo sapiens); construct: histidine tag (N); made in house; host or cells: Escherichia coli BL21-CodonPlus (DE3)-RIL; assay: Aurora B inhibitory action (Kemptide substrate, [γ-33P]ATP, 100 μM ATP); type: biochemical; conditions: 30° C., 20 minutes
Sequence (Q96GD4 whole entry): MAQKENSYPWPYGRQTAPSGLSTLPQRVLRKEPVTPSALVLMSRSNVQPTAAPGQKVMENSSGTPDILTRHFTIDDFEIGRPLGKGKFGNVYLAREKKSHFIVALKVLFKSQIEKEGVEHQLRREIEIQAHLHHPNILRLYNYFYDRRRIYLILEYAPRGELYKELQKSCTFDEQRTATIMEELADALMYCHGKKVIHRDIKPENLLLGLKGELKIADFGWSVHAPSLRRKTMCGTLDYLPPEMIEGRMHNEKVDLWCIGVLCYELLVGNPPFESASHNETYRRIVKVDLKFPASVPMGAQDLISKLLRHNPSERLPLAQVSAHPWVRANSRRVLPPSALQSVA
Counter-ions that a name gives are not always drawn.
Reported values of IC50 for individual entries
All answers are understood in nM, so give the number only.

Worked examples, 6 compounds total:
[[record]]
compound = "CN(C)C(=O)c1cc(CN2C[C@@H]3C[C@H]2CN3C(=O)c2cccc(Cl)c2C#N)nc(Nc2nccs2)c1 [Example 23, trifluoroacetate]"
measure_unit = "nM"
value_measured = 330

[[record]]
compound = "O=C(c1cccc(C(F)(F)F)c1F)N1C[C@@H]2C[C@H]1CN2Cc1nccc(Nc2cc[nH]n2)n1"
measure_unit = "nM"
value_measured = 2800

[[record]]
compound = "CN(C)C(=O)c1cc(CN2C[C@@H]3C[C@H]2CN3C(=O)c2cccc(C(F)(F)F)c2C#N)nc(Nc2nccs2)c1"
measure_unit = "nM"
value_measured = 190

[[record]]
compound = "O=C(c1cccc(Cl)c1Cl)N1C[C@@H]2C[C@H]1CN2Cc1cncc(Nc2cc[nH]n2)n1 [Example 10, trifluoroacetate]"
measure_unit = "nM"
value_measured = 2100

[[record]]
compound = "CN(C)C(=O)c1cc(CN2C[C@@H]3C[C@H]2CN3C(=O)c2cccc(C(F)(F)F)c2F)nc(Nc2nccs2)c1 [Example 22, trifluoroacetate]"
measure_unit = "nM"
value_measured = 590

[[record]]
compound = "O=C(c1cccc(C(F)(F)F)c1Cl)N1C[C@H]2C[C@@H]1CN2Cc1cncc(Nc2cc[nH]n2)n1"
measure_unit = "nM"
value_measured = 2300


What the record says about `Cc1cc(Nc2cc[nH]n2)nc(CN2C[C@@H]3C[C@H]2CN3C(=O)c2cccc(Cl)c2F)n1` : IC50 is 640

###

// reported pIC50 per item
molecular target: Aurora A (Homo sapiens, UniProt O14965)
Sequence (O14965 whole entry): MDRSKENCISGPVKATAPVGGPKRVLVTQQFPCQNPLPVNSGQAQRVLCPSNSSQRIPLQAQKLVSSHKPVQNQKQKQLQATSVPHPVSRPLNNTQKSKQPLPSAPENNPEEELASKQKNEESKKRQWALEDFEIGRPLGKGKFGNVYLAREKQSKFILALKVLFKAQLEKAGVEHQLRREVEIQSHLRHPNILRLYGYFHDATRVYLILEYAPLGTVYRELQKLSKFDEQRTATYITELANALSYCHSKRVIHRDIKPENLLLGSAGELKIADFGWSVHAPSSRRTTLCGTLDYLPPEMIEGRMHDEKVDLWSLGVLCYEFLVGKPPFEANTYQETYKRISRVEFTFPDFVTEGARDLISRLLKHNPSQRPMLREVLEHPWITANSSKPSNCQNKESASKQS
Structures can show the parent of a compound that is named as a salt.
API: returns pIC50 as number; meaning -log10 of concentration in mol/L.

Reference set, count: 5
[[record]]
compound = "O=C(c1cccc(C(F)(F)F)c1Cl)N1C[C@H]2C[C@@H]1CN2Cc1cncc(Nc2cc[nH]n2)n1"
value_measured = 8.32

[[record]]
compound = "O=C(c1cccc(Cl)c1Cl)N1C[C@@H]2C[C@H]1CN2Cc1cncc(Nc2cc[nH]n2)n1 [Example 10, trifluoroacetate]"
value_measured = 8.15

[[record]]
compound = "O=C(c1cccc(C(F)(F)F)c1F)N1C[C@@H]2C[C@H]1CN2Cc1nccc(Nc2cc[nH]n2)n1"
value_measured = 8.21

[[record]]
compound = "Cc1cc(Nc2cc(C)[nH]n2)nc(CN2C[C@@H]3C[C@H]2CN3C(=O)c2cccc(Cl)c2F)n1"
value_measured = 8.24

[[record]]
compound = "CN(C)C(=O)c1cc(CN2C[C@@H]3C[C@H]2CN3C(=O)c2cccc(Cl)c2C#N)nc(Nc2nccs2)c1 [Example 23, trifluoroacetate]"
value_measured = 8.85


Lab note: compound `Cc1cc(Nc2cc[nH]n2)nc(CN2C[C@@H]3C[C@H]2CN3C(=O)c2cccc(Cl)c2F)n1` tested on Aurora A (Homo sapiens, UniProt O14965); recorded pIC50 was 8.52

Item: CN(C)C(=O)c1cc(CN2C[C@@H]3C[C@H]2CN3C(=O)c2cccc(C(F)(F)F)c2F)nc(Nc2nccs2)c1 [Example 22, trifluoroacetate] | System: Aurora A (Homo sapiens, UniProt O14965) | pIC50: 8.85
